target: T1, Human PD-1 protein with histidine and avi tags (ACRO Biosystems, PD1-H82E4) (human, UniProt Q15116 25-167); test: BLI (Octet Red96e), PD-1 captured on SA sensor, 1:1 local fit
T1 construct: Captured on streptavidin (SA) sensors in the BLI assay; not shown: histidine and avi tags
T1 sequence (Q15116 25-167 limits assumed): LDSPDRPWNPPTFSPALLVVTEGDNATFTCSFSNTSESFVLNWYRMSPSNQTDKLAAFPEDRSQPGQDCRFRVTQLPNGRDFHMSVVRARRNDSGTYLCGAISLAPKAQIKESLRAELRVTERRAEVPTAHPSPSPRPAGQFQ
PROPERTY NAME: kon (M⁻¹ s⁻¹)
Use M⁻¹ s⁻¹ as the unit, but write only the number.

Example entries begin here.
>  <BINDER>
PR005100 (VHH, Monovalent single-domain (VH) variant of PR002481 with Flag-6His tag) VHH: EVQLVETGGGLIQPGGSLRLSCAASGFNVSSHYMSWVRQAPGKGREWVSIIDRGGSKYYADSVKGRFTISRDNSKNRLYLQMNSLRAEDTAMYYCARATAVAEKNGYNYPFNYWGQGTLVTVSS

>  <MEASUREMENT UNITS>
M⁻¹ s⁻¹

>  <kon>
26000

$$$$
>  <BINDER>
PR005104 (VHH, Monovalent single-domain (VH) variant of PR002481 with Flag-6His tag) VHH: EVQLVETGGGLIQPGGSLRLSCAASGFNVSSHYMSWVRQAPGKGREWVSIIDISGSTYYADSVKGRFTISRDNSKNRLYLQMNSLRAEDTAMYYCARATAVAEKNGYNYPFNYWGQGTLVTVSS

>  <MEASUREMENT UNITS>
M⁻¹ s⁻¹

>  <kon>
79000

$$$$
>  <BINDER>
PR005575 (antibody, human IgG1, V domains shown, no light chain; also called anti-PD1 PR002481Com_24 HCAb hIgG1) VH: EVQLVETGGGLIQPGGSLRLSCAASGFNVASHYMSWVRQAPGKGREWVSIIDKAGSGYYADSVKGRFTISRDNSKNRLYLQMNSLRAEDTAMYYCARATEVREKQGYNYPFNYWGQGTLVTVSS

>  <MEASUREMENT UNITS>
M⁻¹ s⁻¹

>  <kon>
12900

$$$$
>  <BINDER>
PR005090 (VHH, Monovalent single-domain (VH) antibody with Flag-6His tag) VHH: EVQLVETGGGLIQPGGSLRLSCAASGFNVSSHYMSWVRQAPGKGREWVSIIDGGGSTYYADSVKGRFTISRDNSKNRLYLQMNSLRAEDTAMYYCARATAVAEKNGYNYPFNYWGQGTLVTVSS

>  <MEASUREMENT UNITS>
M⁻¹ s⁻¹

>  <kon>
55000

$$$$
>  <BINDER>
PR005569 (antibody, human IgG1, V domains shown, no light chain; also called anti-PD1 PR002481R2M4_E2 HCAb hIgG1) VH: EVQLVETGGGLIQPGGSLRLSCAASGFNVSFYYMSWVRQAPGKGREWVSIIDKSGSTYYAASVKGRFTISRDNSKNRLYLQMNSLRAEDTAMYYCARATEVREKNGYNYPFNYWGQGTLVTVSS

>  <MEASUREMENT UNITS>
M⁻¹ s⁻¹

>  <kon>
11900

$$$$
>  <BINDER>
PR005093 (VHH, Monovalent single-domain (VH) variant of PR002481 with Flag-6His tag) VHH: EVQLVETGGGLIQPGGSLRLSCAASGFNVSSHYMSWVRQAPGKGREWVSIIDGGGSTYYADSVKGRFTISRDNSKNRLYLQMNSLRAEDTAMYYCARATRVREANGYNYPFNYWGQGTLVTVSS

>  <MEASUREMENT UNITS>
M⁻¹ s⁻¹

>  <kon>
132000

$$$$
>  <BINDER>
PR005103 (VHH, Monovalent single-domain (VH) variant of PR002481 with Flag-6His tag) VHH: EVQLVETGGGLIQPGGSLRLSCAASGFNVSSHYMSWVRQAPGKGREWVSIIDRGGGTYYADSVKGRFTISRDNSKNRLYLQMNSLRAEDTAMYYCARATAVAEKNGYNYPFNYWGQGTLVTVSS

>  <MEASUREMENT UNITS>
M⁻¹ s⁻¹

>  <kon>
3160

$$$$
>  <BINDER>
PR005141 (VHH, Monovalent single-domain (VH) variant of PR002481 with Flag-6His tag) VHH: EVQLVETGGGLIQPGGSLRLSCAASGFNVSYFYMSWVRQAPGKGREWVSIIDKGGSGYYAASVKGRFTISRDNSKNRLYLQMNSLRAEDTAMYYCARATEVREKNGYNYPFNYWGQGTLVTVSS

>  <MEASUREMENT UNITS>
M⁻¹ s⁻¹

>  <kon>
52100

$$$$

Query: kon; subject: PR005098 (VHH, Monovalent single-domain (VH) variant of PR002481 with Flag-6His tag) VHH: EVQLVETGGGLIQPGGSLRLSCAASGFNVSSHYMSWVRQAPGKGREWVSIIDGGGSTYYADSVKGRFTISRDNSKNRLYLQMNSLRAEDTAMYYCARATQVREKGGYNYPFNYWGQGTLVTVSS
67100

Try this binder next: PR005585 (antibody, human IgG1, V domains shown, no light chain; also called anti-PD1 PR002481Com_35 HCAb hIgG1) VH: EVQLVETGGGLIQPGGSLRLSCAASGFTVSSFYMSWVRQAPGKGREWVSIIDKAGSTYYADSVKGRFTISRDNSKNRLYLQMNSLRAEDTAMYYCARATEVREKQGYNYPFNYWGQGTLVTVSS
13200

Now consider PR005147 (VHH, Monovalent single-domain (VH) variant of PR002481 with Flag-6His tag) VHH: EVQLVETGGGLIQPGGSLRLSCAASGFNVSYYYMSWVRQAPGKGREWVSIIDKAGSTYYGASVKGRFTISRDNSKNRLYLQMNSLRAEDTAMYYCARATMVREKNGYNYPFNYWGQGTLVTVSS .
1660

# iterate: PR005099 (VHH, Monovalent single-domain (VH) variant of PR002481 with Flag-6His tag) VHH: EVQLVETGGGLIQPGGSLRLSCAASGFNVSSHYMSWVRQAPGKGREWVSIIDSAGSTYYADSVKGRFTISRDNSKNRLYLQMNSLRAEDTAMYYCARATAVAEKNGYNYPFNYWGQGTLVTVSS
105000

Check PR005148 (VHH, Monovalent single-domain (VH) variant of PR002481 with Flag-6His tag) VHH: EVQLVETGGGLIQPGGSLRLSCAASGFNVSSHYMSWVRQAPGKGREWVSIIDKAGSGYYAASVKGRFTISRDNSKNRLYLQMNSLRAEDTAMYYCARATEVREKNGYNYPFNYWGQGTLVTVSS too.
47200

Can you handle PR005142 (VHH, Monovalent single-domain (VH) variant of PR002481 with Flag-6His tag) VHH: EVQLVETGGGLIQPGGSLRLSCAASGFNVSFYYMSWVRQAPGKGREWVSIIDKGGSGYYAASVKGRFTISRDNSKNRLYLQMNSLRAEDTAMYYCARATEVREKNGYNYPFNYWGQGTLVTVSS next?
8200

Follow-up item: PR005145 (VHH, Monovalent single-domain (VH) variant of PR002481 with Flag-6His tag) VHH: EVQLVETGGGLIQPGGSLRLSCAASGFNVSFYYMSWVRQAPGKGREWVSIIDKGGSTYYGDSVKGRFTISRDNSKNRLYLQMNSLRAEDTAMYYCARATEVREKNGYNYPFNYWGQGTLVTVSS
9860
